# System: T-47D breast
# Assay explanation: NCI-60 one-dose screen, 48 h
# Settings: 10 µM unless noted
The panel holds about 83,000 compounds, 20% with a hit somewhere; the sample as a whole holds those more often. Calls of active or inactive are those of the source. Rule for the calls: active = growth percent below 10; inactive = the rest.
Allowed answers: TRUE (active), FALSE (inactive)

Oc1ccc(CCn2c(O)c(/C=C3\CN=c4ccccc4=N3)sc2=S)cc1
FALSE
CC1=C(C(=O)OC(C)C)C(c2ccc3c(c2)OCO3)NC(=S)N1 (stereo not given)
FALSE
COc1ccc(/C=C2\C(=O)N=C3N2NC(c2cc(Br)ccc2O)C=C(C)N3c2ccccc2)cc1 (stereo not given)
FALSE
O=C(Nn1c2c(sc1=Nc1ccccc1)C(=O)c1ccccc1C2=O)c1cc2ccc1CCc1ccc(cc1)CC2
FALSE
COC(=O)/C=C1/SC(=Nc2ccc(C)cc2)N(CCc2c[nH]c3ccc(O)cc23)C1=O
FALSE
COc1cccc(/C=C/C(=O)c2cc3c(N)c(C(=O)Nc4ccccc4)sc3nc2C)c1
FALSE
COC(C(=O)[C@@H](O)[C@@H](C)O)[C@@H]1Cc2cc3cc(O[C@H]4C[C@@H](O[C@H]5C[C@@H](O)[C@H](O)C(C)O5)[C@H](O)C(C)O4)c(C)c(O)c3c(O)c2C(=O)[C@H]1O[C@H]1C[C@@H](O[C@H]2C[C@@H](O[C@H]3C[C@@H](O)[C@H](OC)C(C)O3)[C@@H](O)C(C)O2)[C@H](O)C(C)O1 (stereo not given in full)
TRUE
Oc1c(Cl)cc(Cl)c2ccc(Cn3cc(-c4cc(C(F)(F)F)cc(C(F)(F)F)c4)nn3)nc12
FALSE

Which result was noted for this molecule in the test: O=C1/C(=C/c2ccc(Cl)c(Cl)c2)CN(C(=O)C(Cl)Cl)C/C1=C\c1ccc(Cl)c(Cl)c1
TRUE

Which result was noted for this molecule in the test: C=CCc1c2c(c(OC)c3ccoc13)C(=O)/C(=C/c1ccccc1OC)O2
FALSE

Hello, the source for this data is PubChem BioAssay (NCI), in case you need it.
